Values compiled from ChEMBL document CHEMBL1157920.

# Tested on: RBL-2H3
# run description: Inhibition of anti-DNP-IgE-induced degranulation in rat RBL2H3 cells assessed as betahexosaminidase released at 100 uM after 20 mins by microplate reader assay
# Format: functional
# run parameters: RBL-2H3, 20 min
Would you mind telling me the reported inhibition at 100 µM of each entry?
Answer with a number only, understood to be in %.

Lab note: Oc1ccc(CCCC[C@@H](O)CCc2ccc(O)cc2)cc1 gave inhibition at 100 µM of 31.5

Quick note, inhibition at 100 µM for O=C(CCc1ccc(O)cc1)C[C@@H](CCc1ccc(O)cc1)O[C@@H]1O[C@H](CO[C@@H]2OC[C@](O)(CO)[C@H]2O)[C@@H](O)[C@H](O)[C@H]1O[C@H]1OC[C@@](O)(CO)[C@@H]1O landed at 23.4

Recorded inhibition at 100 µM (molecule OC[C@]1(O)CO[C@@H](OC[C@H]2O[C@@H](O[C@H](CCCCc3ccc(O)cc3)CCc3ccc(O)cc3)[C@H](O[C@H]3OC[C@@](O)(CO)[C@@H]3O)[C@@H](O)[C@@H]2O)[C@H]1O ): 23.2

Lab book: inhibition at 100 µM of OC[C@]1(O)CO[C@@H](OC[C@H]2O[C@@H](O[C@H](CCCCc3ccc(O)cc3)CCc3ccc(O)cc3)[C@H](O)[C@@H](O)[C@@H]2O)[C@H]1O noted as 22.4

Measured inhibition at 100 µM, C[C@H](CCc1ccc(O)cc1)O[C@@H]1O[C@H](CO[C@@H]2OC[C@@](O)(CO)[C@@H]2O)[C@@H](O)[C@H](O)[C@H]1O : 26.7

inhibition at 100 µM for C[C@H](CCc1ccc(O)cc1)O[C@H]1O[C@H](COC(=O)C[C@@](C)(O)CC(=O)O)[C@@H](O)[C@H](O)[C@H]1O is 20

C[C@H](CCc1ccc(O)cc1)O[C@@H]1O[C@H](CO)[C@@H](O)[C@H](O)[C@H]1O yielded inhibition at 100 µM of 42.3

The value of inhibition at 100 µM measured for the molecule C[C@@H](O)CCc1ccc(O)cc1 turned out to be 36.5
